// data source = the supplement of paper PMC10307832

Items are presented alongside their recorded relative viability.
Tested on: NCI-H520
PROTOCOL TEXT: relative viability (nuclei count vs DMSO), 5 days (fraction); higher = more cells survive
CONDITION NOTES: first compound 0.2 µM
// return just the number, without any unit appended

Record excerpt, results attached:
INSERT INTO assay_data (compound, value_measured) VALUES
  ('Cc1csc(=NC2CCCCC2)n1/N=C/c1ccc(O)c(O)c1O [MIM1] + CCNC(=O)c1noc(-c2cc(C(C)C)c(O)cc2O)c1-c1ccc(CN2CCOCC2)cc1 [Luminespib] (partner 0.01 µM)', 0.208),
  ('Cc1csc(=NC2CCCCC2)n1/N=C/c1ccc(O)c(O)c1O [MIM1] + Cc1nc(Nc2ncc(C(=O)Nc3c(C)cccc3Cl)s2)cc(N2CCN(CCO)CC2)n1 [Dasatinib] (partner 0.075 µM)', 0.19),
  ('CCNC(=O)c1noc(-c2cc(C(C)C)c(O)cc2O)c1-c1ccc(CN2CCOCC2)cc1 [Luminespib] + Nc1ncn([C@H]2C[C@H](O)[C@@H](CO)O2)c(=O)n1 [Decitabine] (partner 2 µM)', 0.152);

Prompt: Note down relative viability recorded for Cc1csc(=NC2CCCCC2)n1/N=C/c1ccc(O)c(O)c1O [MIM1] + CC(C)C[C@H](NC(=O)[C@H](Cc1ccccc1)NC(=O)c1cnccn1)B(O)O [Bortezomib] (partner 0.002 µM)
Response: 0.721

Prompt: Return value of relative viability for input CCNC(=O)c1noc(-c2cc(C(C)C)c(O)cc2O)c1-c1ccc(CN2CCOCC2)cc1 [Luminespib] + Cc1nc(Nc2ncc(C(=O)Nc3c(C)cccc3Cl)s2)cc(N2CCN(CCO)CC2)n1 [Dasatinib] (partner 0.075 µM) , no commentary.
Response: 0.173

Prompt: Determine its reported relative viability: CN1CCN(CCOc2cc(OC3CCOCC3)c3c(Nc4c(Cl)ccc5c4OCO5)ncnc3c2)CC1 [Saracatinib] + CS(=O)(=O)CCNCc1ccc(-c2ccc3ncnc(Nc4ccc(OCc5cccc(F)c5)c(Cl)c4)c3c2)o1 [Lapatinib] (partner 2 µM)
Response: 0.693

Prompt: Consider the compound CN1CCN(CCOc2cc(OC3CCOCC3)c3c(Nc4c(Cl)ccc5c4OCO5)ncnc3c2)CC1 [Saracatinib] + CC(=O)Nc1cccc(-n2c(=O)n(C3CC3)c(=O)c3c(Nc4ccc(I)cc4F)n(C)c(=O)c(C)c32)c1 [Trametinib] (partner 0.02 µM) . State its measured relative viability.
Response: 0.53

Prompt: Please report the measured relative viability for CCNC(=O)c1noc(-c2cc(C(C)C)c(O)cc2O)c1-c1ccc(CN2CCOCC2)cc1 [Luminespib] + O=C(c1cc(Cc2n[nH]c(=O)c3ccccc23)ccc1F)N1CCN(C(=O)C2CC2)CC1 [Olaparib] (partner 8 µM)
Response: 0.112

Prompt: Complete the entry with relative viability for Cc1csc(=NC2CCCCC2)n1/N=C/c1ccc(O)c(O)c1O [MIM1] + CC1(C)CCC(c2ccc(Cl)cc2)=C(CN2CCN(c3ccc(C(=O)NS(=O)(=O)c4ccc(N[C@H](CCN5CCOCC5)CSc5ccccc5)c(S(=O)(=O)C(F)(F)F)c4)cc3)CC2)C1 [Navitoclax] (partner 0.5 µM)
Response: 1.08

Prompt: Name the recorded relative viability of the item CCNC(=O)c1noc(-c2cc(C(C)C)c(O)cc2O)c1-c1ccc(CN2CCOCC2)cc1 [Luminespib] + CC(=O)Nc1cccc(-n2c(=O)n(C3CC3)c(=O)c3c(Nc4ccc(I)cc4F)n(C)c(=O)c(C)c32)c1 [Trametinib] (partner 0.02 µM) in your answer.
Response: 0.138

Prompt: Identify measured relative viability corresponding to CCNC(=O)c1noc(-c2cc(C(C)C)c(O)cc2O)c1-c1ccc(CN2CCOCC2)cc1 [Luminespib] + COc1cccc2cc(-c3nc([C@H]4CC[C@H](C(=O)O)CC4)n4ncnc(N)c34)[nH]c12 [OSI-027] (partner 0.5 µM)
Response: 0.158

Prompt: Provide only the value of recorded relative viability for CN1CCN(CCOc2cc(OC3CCOCC3)c3c(Nc4c(Cl)ccc5c4OCO5)ncnc3c2)CC1 [Saracatinib] + Nc1nc2[nH]cc(CCc3ccc(C(=O)N[C@@H](CCC(=O)O)C(=O)O)cc3)c2c(=O)[nH]1 [Pemetrexed] (partner 0.2 µM)
Response: 0.508

Prompt: Consider the compound Cc1csc(=NC2CCCCC2)n1/N=C/c1ccc(O)c(O)c1O [MIM1] + C[C@]1(O)C[C@@H](c2nc(-c3ccc4ccc(-c5ccccc5)nc4c3)c3c(N)nccn32)C1 [Linsitinib] (partner 1 µM) . State its measured relative viability.
Response: 0.983

Prompt: Give the reported value of relative viability for this record: CN1CCN(CCOc2cc(OC3CCOCC3)c3c(Nc4c(Cl)ccc5c4OCO5)ncnc3c2)CC1 [Saracatinib] + C[C@@H](Oc1cc(-c2cnn(C3CCNCC3)c2)cnc1N)c1c(Cl)ccc(F)c1Cl [Crizotinib] (partner 1 µM)
Response: 0.732

Prompt: Please report relative viability for the following compound: Cc1csc(=NC2CCCCC2)n1/N=C/c1ccc(O)c(O)c1O [MIM1] + Nc1ncn([C@H]2C[C@H](O)[C@@H](CO)O2)c(=O)n1 [Decitabine] (partner 2 µM)
Response: 0.574

Prompt: // fetch relative viability given entry CCNC(=O)c1noc(-c2cc(C(C)C)c(O)cc2O)c1-c1ccc(CN2CCOCC2)cc1 [Luminespib] + Nc1nc2[nH]cc(CCc3ccc(C(=O)N[C@@H](CCC(=O)O)C(=O)O)cc3)c2c(=O)[nH]1 [Pemetrexed] (partner 0.2 µM)
Response: 0.13

Prompt: Identify measured relative viability corresponding to CN1CCN(CCOc2cc(OC3CCOCC3)c3c(Nc4c(Cl)ccc5c4OCO5)ncnc3c2)CC1 [Saracatinib] + Nc1ncn([C@H]2C[C@H](O)[C@@H](CO)O2)c(=O)n1 [Decitabine] (partner 2 µM)
Response: 0.499

Prompt: Using known records, supply relative viability for CN1CCN(CCOc2cc(OC3CCOCC3)c3c(Nc4c(Cl)ccc5c4OCO5)ncnc3c2)CC1 [Saracatinib] + CS(=O)(=O)N1CCN(Cc2cc3nc(-c4cccc5[nH]ncc45)nc(N4CCOCC4)c3s2)CC1 [Pictilisib] (partner 1 µM)
Response: 0.263

Prompt: In one line, give reported relative viability of the entry CN1CCN(CCOc2cc(OC3CCOCC3)c3c(Nc4c(Cl)ccc5c4OCO5)ncnc3c2)CC1 [Saracatinib] + Cc1nc(NC(=O)N2CCC[C@H]2C(N)=O)sc1-c1ccnc(C(C)(C)C(F)(F)F)c1 [Alpelisib] (partner 2 µM) .
Response: 0.779

====

Test system: IA-LM
PROTOCOL TEXT: relative viability (nuclei count vs DMSO), 5 days (fraction); higher = more cells survive
CONDITION NOTES: first compound 0.6325 µM
ASSAY ENDPOINT: relative viability
Provide a numeric answer; units are not to be included.

INSERT INTO results (molecule, value_measured) VALUES
  ('CN1CCN(CCOc2cc(OC3CCOCC3)c3c(Nc4c(Cl)ccc5c4OCO5)ncnc3c2)CC1 [Saracatinib] + COc1cc2c(Oc3ccc(NC(=O)C4(C(=O)Nc5ccc(F)cc5)CC4)cc3F)ccnc2cc1OCCCN1CCOCC1 [Foretinib] (partner 0.25 µM)', 1.01),
  ('Cc1csc(=NC2CCCCC2)n1/N=C/c1ccc(O)c(O)c1O [MIM1] + C[C@]1(O)C[C@@H](c2nc(-c3ccc4ccc(-c5ccccc5)nc4c3)c3c(N)nccn32)C1 [Linsitinib] (partner 1 µM)', 0.36),
  ('CN1CCN(CCOc2cc(OC3CCOCC3)c3c(Nc4c(Cl)ccc5c4OCO5)ncnc3c2)CC1 [Saracatinib] + O=C(CCCCCCC(=O)Nc1ccccc1)NO [Vorinostat] (partner 1 µM)', 1.4),
  ('Cc1csc(=NC2CCCCC2)n1/N=C/c1ccc(O)c(O)c1O [MIM1] + Cc1nc(NC(=O)N2CCC[C@H]2C(N)=O)sc1-c1ccnc(C(C)(C)C(F)(F)F)c1 [Alpelisib] (partner 2 µM)', 0.805);

Now for another entry.
Prompt: Entry Cc1csc(=NC2CCCCC2)n1/N=C/c1ccc(O)c(O)c1O [MIM1] + COc1cc2c(Oc3ccc(NC(=O)C4(C(=O)Nc5ccc(F)cc5)CC4)cc3F)ccnc2cc1OCCCN1CCOCC1 [Foretinib] (partner 0.25 µM) needs its relative viability filled in; supply it.
Response: 1.29

====

Tested on: EPLC-272H
PROTOCOL TEXT: relative viability (nuclei count vs DMSO), 5 days (fraction); higher = more cells survive
CONDITION NOTES: first compound 0.01 µM
ASSAY ENDPOINT: relative viability
Please reply with the number alone, leaving off any unit.

A selection of reference data follows.
INSERT INTO results (molecule, measurement_target, assay_endpoint, value_measured) VALUES
  ('Cc1cn(-c2cc(NC(=O)c3ccc(C)c(Nc4nccc(-c5cccnc5)n4)c3)cc(C(F)(F)F)c2)cn1 [Nilotinib] + CC(=O)Nc1cccc(-n2c(=O)n(C3CC3)c(=O)c3c(Nc4ccc(I)cc4F)n(C)c(=O)c(C)c32)c1 [Trametinib] (partner 0.02 µM)', 'EPLC-272H', 'relative viability', 0.34),
  ('Cc1cn(-c2cc(NC(=O)c3ccc(C)c(Nc4nccc(-c5cccnc5)n4)c3)cc(C(F)(F)F)c2)cn1 [Nilotinib] + CCNC(=O)c1noc(-c2cc(C(C)C)c(O)cc2O)c1-c1ccc(CN2CCOCC2)cc1 [Luminespib] (partner 0.01 µM)', 'EPLC-272H', 'relative viability', 0.277),
  ('Cc1cn(-c2cc(NC(=O)c3ccc(C)c(Nc4nccc(-c5cccnc5)n4)c3)cc(C(F)(F)F)c2)cn1 [Nilotinib] + CC(C)C[C@H](NC(=O)[C@H](Cc1ccccc1)NC(=O)c1cnccn1)B(O)O [Bortezomib] (partner 0.002 µM)', 'EPLC-272H', 'relative viability', 0.863),
  ('Cc1cn(-c2cc(NC(=O)c3ccc(C)c(Nc4nccc(-c5cccnc5)n4)c3)cc(C(F)(F)F)c2)cn1 [Nilotinib] + CS(=O)(=O)N1CCN(Cc2cc3nc(-c4cccc5[nH]ncc45)nc(N4CCOCC4)c3s2)CC1 [Pictilisib] (partner 1 µM)', 'EPLC-272H', 'relative viability', 0.258),
  ('Cc1cn(-c2cc(NC(=O)c3ccc(C)c(Nc4nccc(-c5cccnc5)n4)c3)cc(C(F)(F)F)c2)cn1 [Nilotinib] + O=C(c1cc(Cc2n[nH]c(=O)c3ccccc23)ccc1F)N1CCN(C(=O)C2CC2)CC1 [Olaparib] (partner 8 µM)', 'EPLC-272H', 'relative viability', 0.696);

Query molecule follows.
Prompt: Answer with reported relative viability of Cc1cn(-c2cc(NC(=O)c3ccc(C)c(Nc4nccc(-c5cccnc5)n4)c3)cc(C(F)(F)F)c2)cn1 [Nilotinib] + N=C(N)NC(=N)NCCc1ccccc1 [Phenformin] (partner 250 µM)
Response: 0.262
